# testProtocol: modulators of S6 phosphorylation in cells, primary screen, cell-based, A549, cytoblot, luminescence, serum-stimulated (AID 1158);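 further: serum-stimulated A549 lung adenocarcinoma cells; signal is phosphorylated S6 detected by cytoblot immunostaining with HRP secondary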
# assayConditions: A549 phospho-S6 cytoblot, 5 h, higher = more signal
readoutType: z-score
Numbers only.

// solved cases for z-score follow
COc1ccc([Si](C)(C)[C@@H]2[C@@H](CC(=O)N3Cc4ccccc4C[C@H]3CO)O[C@]3(C(=O)N(C)c4ccccc43)[C@H]2C)cc1 ... 0.884
CC(=O)NCCCC[C@@H]1NC(=O)[C@H]2C[C@@H](C(=O)NCCCC[N+](C)(C)C)[C@@H](c3cccc(OCCO)c3)N2C1=O ... -0.611
COC(=O)c1c(CC[C@@H](CO)NC(=O)N[C@H](Cn2cc(C3(O)CCCCC3)nn2)C(C)C)oc(C(C)=O)c1C(=O)OC ... 2.22

Please supply z-score for each of the following items, keeping them in order.
1. CC(C)C[C@@H]1NC(=O)[C@@H]2C[C@H](C(=O)NCCCCCN)[C@H](c3ccc(O)cc3)N2C1=O
2. CN1C(=O)C2C=CC(C(O)c3cccc4ccccc34)N(N3CCCCC3)C2C1=O (configuration not stated)

a:
1. -0.928
2. -1.32

Please supply z-score for each of the following items, keeping them in order.
1. COCCOC(=O)N1C(=O)[C@@]2(c3cc(C#CC4=CCCCC4)ccc31)[C@H](c1ccc(OCCO)cc1)N1[C@H](c3ccccc3)[C@H](c3ccccc3)OC(=O)[C@H]1[C@@H]2C(=O)N1CCN(c2ncccn2)CC1
2. COC(=O)[C@@]1(Cc2ccc(OC)cc2)[C@H]2c3cc(C(=O)N(C)C)n(C[C@H](O)CO)c3C[C@H]2CN1C(=O)c1ccccc1

a:
1: 0.829; 2: -0.364

###

For each of the molecules below, state its composite z-score.
# studySystem: Carbonic anhydrase 2 (Homo sapiens) (UniProt P00918)
# testProtocol: CAII small-molecule binders, profiling panel, biochemical, small-molecule microarray, Alexa647-labelled CAII (AID 1122)
# assayConditions: CAII-A647 binding fluorescence, higher = more signal
One number for each entry.

CN1C(=O)C2C=CC(C(O)c3cccc(O)c3)N(Nc3ccccc3)C2C1=O (stereo not drawn) ... 0.552

Please supply composite z-score for each of the following items, keeping them in order.
1. CCCNC(=O)[C@@]1(c2ccc([N+](=O)[O-])cc2)CC(=O)N(C2CCCCC2)[C@@H]1c1ccc(CO)cc1
2. CCOC(=O)C[C@H]1[C@H](OC(=O)c2cc3ccccc3oc2=O)[C@@H](NC(=O)c2ccc(-c3ccccc3)cc2)c2cc(OCCCO)ccc2N1C(=O)c1ccc2ccccc2n1
3. C=CC[C@]1(C(=O)O)COC(c2ccc(OCCCO)cc2)=N1
4. O=C1O[C@H](c2ccccc2)[C@H](c2ccccc2)N2[C@H]1[C@@H](C(=O)Nc1nc3ccccc3s1)[C@]1(C(=O)Nc3ccccc31)[C@H]2c1ccc(OCCO)cc1
5. CC(C)C[C@@H]1NC(=O)[C@@H]2C[C@H](C(=O)NCCCCCN)[C@H](c3ccc(O)cc3)N2C1=O
6. C=C(C)[C@@H]1CC=C(C(O)C2C=CC3C(=O)N(c4ccccc4)C(=O)C3N2Nc2ccccc2F)CC1 (stereo partly drawn)
7. COC(=O)c1cn(C[C@@H](Cc2ccccc2)NC(=O)N[C@H](CO)CCc2oc(C(C)=O)c(C(=O)OC)c2C(=O)OC)nn1
8. [N-]=[N+]=NCc1ccccc1[C@H]1OC(c2ccc(OCCCO)cc2)=N[C@@]1(CCS(=O)(=O)c1ccccc1)C(=O)NCC(O)CO (stereo partly drawn)

a:
1. 0.66
2. 0.4
3. 0.969
4. 0.546
5. 0.577
6. 0.747
7. 0.182
8. 0.736

Please supply composite z-score for each of the following items, keeping them in order.
1. Cc1ccc(S[C@]2(C(=O)NCCCN(C)C)CC(=O)N(C3CCCCC3)[C@@H]2c2ccc(CO)cc2)cc1
2. COc1ccc(NC(=O)O[C@H]2[C@H](OC(=O)Nc3ccccc3)[C@H](OC(=O)Nc3ccccc3)[C@@H](OC)O[C@@H]2CO)cc1
3. COC(=O)[C@@]1(Cc2ccccc2)[C@@H]2C(=CC(=O)[C@H]2CC(=O)C(=O)N(C)C)CN1C(=O)c1ccccc1
4. COC(=O)c1c2oc(c1C(=O)OC)C(=O)N(C)Cc1cn(nn1)C[C@H](Cc1ccccc1)NC(=O)N[C@H](CO)CC2
5. Cc1ccc(S[C@]2(C(=O)O)CC(=O)N(Cc3cc(C(F)(F)F)cc(C(F)(F)F)c3)[C@@H]2c2ccc(CO)cc2)cc1
6. COCCOC(=O)N1C(=O)[C@@]2(c3cc(C#Cc4ccc(OC)cc4)ccc31)[C@H](c1ccc(O)cc1)N1[C@H](c3ccccc3)[C@H](c3ccccc3)OC(=O)[C@H]1[C@@H]2C(=O)N1CCCCCCC1
7. CN(C)CCCNC(=O)[C@@]1(C)c2ccccc2C(=O)N(Cc2ccccc2)[C@H]1c1ccc(CO)cc1
8. C=CCC(OC(C)=O)[C@@H]1[C@@H](N(Cc2ccc(-c3cccc(C(F)(F)F)c3)o2)C(=O)c2ccc(-c3ccccc3)cc2)c2cc(OCCCO)ccc2N1C(=O)c1ccc2ccccc2n1 (stereo partly drawn)

a:
[0.228, 0.703, 0.808, -0.41, 0.65, 0.466, 0.704, -0.232]

Please supply composite z-score for each of the following items, keeping them in order.
1. Cc1ccccc1C(O)C1C=CC2C(=O)N(C)C(=O)C2N1N(c1ccccc1)c1ccccc1 (stereo not drawn)
2. COCCOC(=O)N1C(=O)[C@@]2(c3cc(C#CCNC(N)=O)ccc31)[C@H](C(=O)N1CCc3cc(OC)c(OC)cc3C1)[C@H]1C(=O)O[C@H](c3ccccc3)[C@H](c3ccccc3)N1[C@@H]2c1ccccc1OCCO
3. CC(C)N1CC=CC23O[C@@H]4C=CCOC(=O)[C@@H]4[C@H]2C(=O)N(CCCO)[C@@H]3C1=O (stereo partly drawn)
4. COc1ccc(CCNC(=O)[C@@H]2c3ccccc3C(=O)N(Cc3cc(C(F)(F)F)cc(C(F)(F)F)c3)[C@H]2c2ccc(CO)cc2)cc1

a:
1. 0.833
2. 0.577
3. 0.863
4. 0.681

Please supply composite z-score for each of the following items, keeping them in order.
1. C=CCOC(=O)[C@H]1[C@@H]2C(=O)O[C@@H](c3ccccc3)[C@@H](c3ccccc3)N2[C@@H](c2ccc(OCCOC(=O)[C@H]3C[C@H]4C(=O)N[C@@H](CC(C)C)C(=O)N4[C@H]3c3cccc(OCCO)c3)cc2)[C@]12C(=O)Nc1ccc(I)cc12
2. COC(=O)[C@@]1(Cc2ccc(F)cc2)[C@H]2c3cc(C(=O)N4CCCC4)n(CCc4ccc(O)c(O)c4)c3C[C@H]2CN1C(=O)c1ccccc1
3. C=C(/C(=C/C[C@H](OC(C)=O)c1cccc(OCCO)c1)c1cnc2ccccc2c1)C(C)C
4. CC(C)C(=C=CC[C@H](O)c1ccc(OCCO)cc1)C[C@H](O)c1ccccn1
5. C=CC1c2cc(O)c(OC)cc2CCN1Cc1cc2c(cc1Br)OCO2 (stereo not drawn)
6. O=C1O[C@H](c2ccccc2)[C@H](c2ccccc2)N2[C@H]1[C@@H](C(=O)NC[C@H](O)c1ccccc1)[C@]1(C(=O)Nc3ccc(C#CCCO)cc31)[C@H]2c1ccc(OCCO)cc1
7. COc1ccc(-c2nc(-c3ccccc3)c3c(c2C)CO[Si]3(C(C)C)C(C)C)cn1

a:
1: 0.518; 2: 0.83; 3: 0.547; 4: 0.513; 5: 0.823; 6: 0.627; 7: 0.0924
